These measurements were taken from patent US20190248902A1.

Target: T1, human ASGR-1 (human, UniProt P07306 1-291)
T1 construct: Stably expressed on CHO-S cells (CHO-S:huASGR-1); The method text says human or mouse ASGR-1 cells were used; also called huASGR-1; hASGR-1
T1 sequence: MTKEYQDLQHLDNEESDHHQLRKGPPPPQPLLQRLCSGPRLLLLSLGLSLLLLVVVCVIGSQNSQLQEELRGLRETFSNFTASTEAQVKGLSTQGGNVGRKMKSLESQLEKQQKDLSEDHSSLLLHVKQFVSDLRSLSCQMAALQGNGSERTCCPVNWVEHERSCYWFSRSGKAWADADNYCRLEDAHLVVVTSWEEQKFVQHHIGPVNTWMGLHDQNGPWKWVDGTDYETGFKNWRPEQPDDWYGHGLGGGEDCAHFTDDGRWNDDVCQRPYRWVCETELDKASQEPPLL
Assay: FACS ligand blocking on CHO-S ASGR-1 cells; labelled ligand biotin-GalNAc-PAA (synthetic sugar)
Documented % Inhibition across a set of binders

Field: example entries. Status: answers known.
binder="218G4 (antibody, V domains shown) VH: QVQLVESGGGVVQPGRSLRLSCAASGFTFSSYGLHWVRQAPGKGLEWVAVIWYDGSNKYYADSVKGRFTISRDNSKNTLYLQMNSLRVEDTAVYYCANWYYYYYGMDVWGQGTTVTVSS VL: QSVLTQPPSVSAAPGQKVTISCSGSSSNIGNNYVSWYQQLPGTAPKLLLYDSNKRPSGIPARFSGSKSGTSATLGITGLQTGDEADYYCGTWDSSLNTVVFGGGTKLTVL" parameter_measured="% Inhibition" data_value=99%
binder="72G9 (antibody, V domains shown) VH: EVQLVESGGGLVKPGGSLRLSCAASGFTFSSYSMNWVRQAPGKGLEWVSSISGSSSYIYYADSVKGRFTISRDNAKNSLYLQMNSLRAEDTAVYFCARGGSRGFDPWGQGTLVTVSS VL: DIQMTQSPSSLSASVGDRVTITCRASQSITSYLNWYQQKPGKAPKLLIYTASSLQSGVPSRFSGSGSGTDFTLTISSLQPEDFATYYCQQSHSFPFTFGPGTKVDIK" parameter_measured="% Inhibition" data_value=20%
binder="75G3 (antibody, V domains shown) VH: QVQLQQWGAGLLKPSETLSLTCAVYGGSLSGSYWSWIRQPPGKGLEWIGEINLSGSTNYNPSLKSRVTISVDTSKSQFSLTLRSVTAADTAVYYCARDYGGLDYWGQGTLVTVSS VL: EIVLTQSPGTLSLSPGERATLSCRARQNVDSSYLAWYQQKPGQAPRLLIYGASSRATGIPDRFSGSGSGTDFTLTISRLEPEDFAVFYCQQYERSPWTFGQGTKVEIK" parameter_measured="% Inhibition" data_value=99%

Q: Using the record for 190F8 (antibody, V domains shown) VH: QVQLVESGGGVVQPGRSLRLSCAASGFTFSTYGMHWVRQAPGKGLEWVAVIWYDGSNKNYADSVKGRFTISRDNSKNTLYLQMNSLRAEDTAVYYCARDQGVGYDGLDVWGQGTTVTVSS VL: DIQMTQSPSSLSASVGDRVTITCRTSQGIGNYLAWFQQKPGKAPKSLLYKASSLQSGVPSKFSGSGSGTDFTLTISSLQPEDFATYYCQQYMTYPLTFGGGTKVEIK , state its measured % Inhibition.
A: 83%

Q: Using the record for 194C1 (antibody, V domains shown) VH: QVQLVESGGGVVQPGRSLRLSCAASGFTFSSYGMHWVRQAPGKGLEWVAVIWYDGSNEHYADSVKGRFTISRDNSKNTLYLQMNSLRAEDTAVYYCARNRGVGYYGLDVWGQGTTVTVSS VL: DIQMTQSPSSLSASVGDRVTITCRASQGISNYLAWFQQKPGKAPKSLIYAASSLQSGVPSKFSGSGSGTDFTLTISSLQPEDFATYYCLHYLTYPLTFGGGTKVEIK , state its measured % Inhibition.
A: 89%

Q: Using the record for 193E7 (antibody, V domains shown) VH: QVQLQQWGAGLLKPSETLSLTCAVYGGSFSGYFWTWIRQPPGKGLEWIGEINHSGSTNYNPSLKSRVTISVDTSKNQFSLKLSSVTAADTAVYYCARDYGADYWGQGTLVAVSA VL: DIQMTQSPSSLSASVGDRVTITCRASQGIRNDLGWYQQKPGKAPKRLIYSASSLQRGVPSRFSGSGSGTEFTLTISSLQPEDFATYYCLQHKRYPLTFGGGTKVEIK , state its measured % Inhibition.
A: 60%

Q: Using the record for 25A4 (antibody, V domains shown) VH: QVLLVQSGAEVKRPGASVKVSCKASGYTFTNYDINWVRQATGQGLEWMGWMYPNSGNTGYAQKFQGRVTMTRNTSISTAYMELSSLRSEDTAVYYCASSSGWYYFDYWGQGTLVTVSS VL: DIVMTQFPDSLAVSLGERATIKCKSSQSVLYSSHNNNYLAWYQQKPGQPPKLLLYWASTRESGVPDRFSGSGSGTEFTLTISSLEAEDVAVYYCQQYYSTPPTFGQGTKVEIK , state its measured % Inhibition.
A: 77%

Q: Using the record for 191G1 (antibody, V domains shown) VH: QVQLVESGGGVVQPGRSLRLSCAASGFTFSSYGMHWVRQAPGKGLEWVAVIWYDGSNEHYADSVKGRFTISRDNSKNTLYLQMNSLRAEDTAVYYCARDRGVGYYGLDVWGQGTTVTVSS VL: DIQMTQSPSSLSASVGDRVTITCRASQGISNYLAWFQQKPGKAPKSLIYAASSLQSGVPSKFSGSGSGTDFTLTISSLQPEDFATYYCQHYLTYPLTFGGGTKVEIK , state its measured % Inhibition.
A: 78%

Q: Using the record for 56E5 (antibody, V domains shown) VH: QVQLVQSGAEVKKPGASVKVSCQASGYTFTGYHMHWVRQAPGQGLEWMGWINPNNNATNYAQKFQGRVTMTRDTSISTAYMELRRLRSDDTAVYHCARDGTSSFDYWGQGTLVTVSS VL: DIQMTQSPSSVSASVGDRVTITCRASQGIRKWLAWYQQKPGKAPKLLIYAASSLQSGVPSRFSGSGSGTDFTLTISSLQPEDFATYYCQQANSFPFTFGPGTKVDIK , state its measured % Inhibition.
A: 99%

Q: Using the record for 197G3 (antibody, V domains shown) VH: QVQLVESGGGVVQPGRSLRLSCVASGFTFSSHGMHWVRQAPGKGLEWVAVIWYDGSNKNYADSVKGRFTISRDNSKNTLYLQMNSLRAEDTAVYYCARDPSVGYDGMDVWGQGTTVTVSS VL: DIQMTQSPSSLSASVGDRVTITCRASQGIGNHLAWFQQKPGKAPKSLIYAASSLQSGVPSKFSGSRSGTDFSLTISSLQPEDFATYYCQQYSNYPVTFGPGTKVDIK , state its measured % Inhibition.
A: 74%
